- test_system: human recombinant HDAC6 (Homo sapiens)
- assay_details: In vitro HDAC enzyme activity inhibition assay (HDAC6)
- condition_set: same protocol as the HDAC1 test, human recombinant HDAC6 (Calbiochem)
pIC50: −log10 of the molar value.
readout_name: pIC50

Study these solved cases before continuing.
O=C(N1CCC(S(=O)(=O)N(Cc2cn3ccc(-c4nnc(C(F)F)o4)cc3n2)c2cccc(F)c2)CC1)C(F)(F)F = 6.94
CC(=O)N1CCC(S(=O)(=O)N(Cc2cn3ccc(-c4nnc(C(F)F)o4)cc3n2)c2cccc(F)c2)CC1 = 7.32
COC(=O)N1CCN(S(=O)(=O)N(Cc2cn3ccc(-c4nnc(C(F)F)o4)cc3n2)c2ccccc2)CC1 = 6.77
O=S(=O)(C1CCN(C2CCCCC2)CC1)N(Cc1cn2ccc(-c3nnc(C(F)F)o3)cc2n1)c1cccc(F)c1 = 7.20
O=S(=O)(N1CCN(C2CCCCC2)CC1)N(Cc1cn2ccc(-c3nnc(C(F)F)o3)cc2n1)c1cccc(F)c1 = 6.78
CC(=O)N1CCN(S(=O)(=O)N(Cc2cn3ccc(-c4nnc(C(F)F)o4)cc3n2)c2cccc(F)c2)CC1 = 7.09

[P] O=S(=O)(C1CCN(C2COC2)CC1)N(Cc1cn2ccc(-c3nnc(C(F)F)o3)cc2n1)c1cccc(F)c1
[Q] O=S(=O)(N1CCN(C2CCC(F)(F)CC2)CC1)N(Cc1cn2ccc(-c3nnc(C(F)F)o3)cc2n1)c1cccc(F)c1
[R] O=S(=O)(N1CCN(C2CCC(F)(F)CC2)CC1)N(Cc1cn2ccc(-c3nnc(C(F)F)o3)cc2n1)c1ccccc1
Ascending by pIC50, please: list the compounds accordingly. Reply with the labels, ordered as the question asks. R, Q, P
(R: 6.69, Q: 6.94, P: 7.16)

====

- test_system: human recombinant HDAC6 (Homo sapiens, UniProt Q9UBN7)
- Construct: purchased Calbiochem Inc. 382180
- assay_details: In vitro HDAC enzyme activity inhibition assay (HDAC6)
- Type: biochemical
- condition_set: HDAC6 over HDAC1
readout_name: HDAC6 selectivity (fold)

Some solved entries appear below for comparison.
O=S(=O)(N1CCN(C2COC2)CC1)N(Cc1cn2ccc(-c3nnc(C(F)F)o3)cc2n1)c1cccc(F)c1 = 737
CCC(=O)N1CCC(S(=O)(=O)N(Cc2cn3ccc(-c4nnc(C(F)F)o4)cc3n2)c2cccc(F)c2)CC1 = 660

[P] CC(CO)N1CCN(S(=O)(=O)N(Cc2cn3ccc(-c4nnc(C(F)F)o4)cc3n2)c2ccccc2)CC1 (stereo not shown)
[Q] CCC(=O)N1CCC(S(=O)(=O)N(Cc2cn3ccc(-c4nnc(C(F)F)o4)cc3n2)c2ccccc2)CC1
Returns: the argument ( P or Q ) having the larger HDAC6 selectivity (fold). I would appreciate it if you answered with the label of your choice. P
(P: 605 fold, Q: 229 fold)

====

- test_system: human recombinant HDAC6 (Homo sapiens)
- Sequence (Q9UBN7 1-1215): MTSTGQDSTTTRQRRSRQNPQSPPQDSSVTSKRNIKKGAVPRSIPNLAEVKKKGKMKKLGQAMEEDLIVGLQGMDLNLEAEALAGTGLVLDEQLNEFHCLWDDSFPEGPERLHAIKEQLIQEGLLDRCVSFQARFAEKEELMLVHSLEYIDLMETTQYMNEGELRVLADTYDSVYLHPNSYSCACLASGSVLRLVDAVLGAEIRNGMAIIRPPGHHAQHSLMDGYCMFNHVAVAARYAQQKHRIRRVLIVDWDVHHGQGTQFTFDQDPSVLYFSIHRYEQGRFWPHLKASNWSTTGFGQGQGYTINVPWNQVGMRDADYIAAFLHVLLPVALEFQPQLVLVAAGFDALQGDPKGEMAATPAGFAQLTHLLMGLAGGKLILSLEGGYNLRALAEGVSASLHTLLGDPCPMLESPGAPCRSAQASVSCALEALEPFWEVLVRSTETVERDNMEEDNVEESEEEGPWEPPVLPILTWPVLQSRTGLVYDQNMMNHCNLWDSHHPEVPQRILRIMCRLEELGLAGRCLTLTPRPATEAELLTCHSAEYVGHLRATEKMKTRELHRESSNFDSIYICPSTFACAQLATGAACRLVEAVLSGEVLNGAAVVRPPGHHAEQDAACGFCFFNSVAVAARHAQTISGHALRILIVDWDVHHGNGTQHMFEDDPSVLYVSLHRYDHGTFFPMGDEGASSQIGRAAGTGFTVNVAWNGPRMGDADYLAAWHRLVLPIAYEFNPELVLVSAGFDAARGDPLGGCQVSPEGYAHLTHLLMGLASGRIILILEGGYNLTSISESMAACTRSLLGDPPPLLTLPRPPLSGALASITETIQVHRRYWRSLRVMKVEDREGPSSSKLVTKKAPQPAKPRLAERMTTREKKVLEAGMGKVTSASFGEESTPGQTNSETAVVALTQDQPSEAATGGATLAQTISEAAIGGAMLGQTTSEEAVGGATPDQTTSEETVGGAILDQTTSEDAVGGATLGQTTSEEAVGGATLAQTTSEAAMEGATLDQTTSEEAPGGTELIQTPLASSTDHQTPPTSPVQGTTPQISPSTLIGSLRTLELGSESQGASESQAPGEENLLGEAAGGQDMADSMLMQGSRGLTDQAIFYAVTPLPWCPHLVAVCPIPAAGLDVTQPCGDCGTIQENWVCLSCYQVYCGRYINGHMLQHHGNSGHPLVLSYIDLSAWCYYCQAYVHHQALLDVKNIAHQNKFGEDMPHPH
- assay_details: In vitro HDAC enzyme activity inhibition assay (HDAC6)
- condition_set: same protocol as the HDAC1 test, human recombinant HDAC6 (Calbiochem)
pIC50: −log10 of the molar value.
readout_name: pIC50

Known pIC50 results, listed for orientation:
CC(CO)N1CCN(S(=O)(=O)N(Cc2cn3ccc(-c4nnc(C(F)F)o4)cc3n2)c2cccc(F)c2)CC1 (centres unmarked) = 6.91
CC(C)(C)OC(=O)N1CCC(S(=O)(=O)N(Cc2cn3ccc(-c4nnc(C(F)(F)F)o4)cc3n2)c2cccc(F)c2)CC1 = 5.51
CC(C)N1CCN(S(=O)(=O)N(Cc2cn3ccc(-c4nnc(C(F)F)o4)cc3n2)c2ccccc2)CC1 = 7.00

[A] CC(C)N1CCC(S(=O)(=O)N(Cc2cn3ccc(-c4nnc(C(F)F)o4)cc3n2)c2ccccc2)CC1
[B] CS(=O)(=O)N1CCN(S(=O)(=O)N(Cc2cn3ccc(-c4nnc(C(F)F)o4)cc3n2)c2cccc(F)c2)CC1
Would you let me know which has the greater pIC50 value, A or B ? To answer, give the label that identifies your chosen option. B

[1] O=S(=O)(C1CCN(C2CC3(CCC3)C2)CC1)N(Cc1cn2ccc(-c3nnc(C(F)F)o3)cc2n1)c1cccc(F)c1
[2] CC(C)N1CCN(S(=O)(=O)N(Cc2cn3ccc(-c4nnc(C(F)F)o4)cc3n2)c2cccc(F)c2)CC1
// max by pIC50 over [ 1 , 2 ] The response must carry the label of the picked entry. 2
(2: 6.99, 1: 6.69)

[a] CCC(=O)N1CCC(S(=O)(=O)N(Cc2cn3ccc(-c4nnc(C(F)F)o4)cc3n2)c2cccc(F)c2)CC1
[b] O=C(N1CCC(S(=O)(=O)N(Cc2cn3ccc(-c4nnc(C(F)F)o4)cc3n2)c2ccccc2)CC1)C(F)(F)F
Pick one: a or b . Which one has the lower reported pIC50? Lab log: write the label of the selected item as the result. b

[1] O=C(C1COC1)N1CCN(S(=O)(=O)N(Cc2cn3ccc(-c4nnc(C(F)F)o4)cc3n2)c2cccc(F)c2)CC1
[2] O=S(=O)(C1CCN(C2CCC(F)(F)CC2)CC1)N(Cc1cn2ccc(-c3nnc(C(F)F)o3)cc2n1)c1ccccc1
Higher pIC50: 1 or 2 ? Please indicate the selected item by its label. 1

====

- test_system: human recombinant HDAC6 (Homo sapiens)
- Construct: purchased Calbiochem Inc. 382180
- assay_details: In vitro HDAC enzyme activity inhibition assay (HDAC6)
- Type: biochemical
- condition_set: HDAC6 over HDAC1
readout_name: HDAC6 selectivity (fold)

[I] CC(=O)N1CCC(S(=O)(=O)N(Cc2cn3ccc(-c4nnc(C(F)F)o4)cc3n2)c2ccccc2)CC1 [Compound 4221]
[II] O=C(C1COC1)N1CCC(S(=O)(=O)N(Cc2cn3ccc(-c4nnc(C(F)F)o4)cc3n2)c2cccc(F)c2)CC1 [Compound 4249]
[III] CN(C)C(=O)N1CCC(S(=O)(=O)N(Cc2cn3ccc(-c4nnc(C(F)F)o4)cc3n2)c2ccccc2)CC1 [Compound 4227]
Could you arrange the 3 molecules above by HDAC6 selectivity (fold), starting with the largest number? Record the ranking as a list of labels in the requested order. II, I, III
(II: 684 fold, I: 364 fold, III: 241 fold)

[a] O=S(=O)(C1CCN(C2CCCCC2)CC1)N(Cc1cn2ccc(-c3nnc(C(F)F)o3)cc2n1)c1cccc(F)c1 [Compound 4242]
[b] CCC(=O)N1CCN(S(=O)(=O)N(Cc2cn3ccc(-c4nnc(C(F)F)o4)cc3n2)c2cccc(F)c2)CC1 [Compound 4307]
Of a versus b , which is the one with smaller reported HDAC6 selectivity (fold)? Reply with the label of the item you choose. b
(b: 365 fold, a: 800 fold)

[1] O=S(=O)(N1CCN(C2CCOCC2)CC1)N(Cc1cn2ccc(-c3nnc(C(F)F)o3)cc2n1)c1cccc(F)c1 [Compound 4304]
[2] CCN1CCC(S(=O)(=O)N(Cc2cn3ccc(-c4nnc(C(F)F)o4)cc3n2)c2ccccc2)CC1 [Compound 4214]
Would you kindly point out which of 1 and 2 has the smaller HDAC6 selectivity (fold) figure? Your choice should be expressed through its label. 2
(2: 278 fold, 1: 832 fold)

[1] CN1CCC(S(=O)(=O)N(Cc2cn3ccc(-c4nnc(C(F)F)o4)cc3n2)c2cccc(F)c2)CC1 [Compound 4236]
[2] O=C(N1CCC(S(=O)(=O)N(Cc2cn3ccc(-c4nnc(C(F)F)o4)cc3n2)c2ccccc2)CC1)C(F)(F)F [Compound 4224]
Which of these two has the smaller recorded HDAC6 selectivity (fold): 1 or 2 ? Pick one; state its label. 2

[1] O=S(=O)(N1CCN(C2CC3(COC3)C2)CC1)N(Cc1cn2ccc(-c3nnc(C(F)F)o3)cc2n1)c1cccc(F)c1 [Compound 4623]
[2] O=S(=O)(C1CCN(C2CCOCC2)CC1)N(Cc1cn2ccc(-c3nnc(C(F)F)o3)cc2n1)c1cccc(F)c1 [Compound 4243]
[3] O=C(C1COC1)N1CCN(S(=O)(=O)N(Cc2cn3ccc(-c4nnc(C(F)F)o4)cc3n2)c2ccccc2)CC1 [Compound 4269]
[4] O=S(=O)(N1CCN(C2CCCCC2)CC1)N(Cc1cn2ccc(-c3nnc(C(F)F)o3)cc2n1)c1ccccc1 [Compound 4262]
Sequence the entries by HDAC6 selectivity (fold), beginning with the highest number. Would you mind listing the labels in the order asked for? 1, 2, 3, 4
(1: 806 fold, 2: 530 fold, 3: 259 fold, 4: 167 fold)

[a] O=S(=O)(N1CCN(C2CCC2)CC1)N(Cc1cn2ccc(-c3nnc(C(F)F)o3)cc2n1)c1cccc(F)c1 [Compound 4301]
[b] O=S(=O)(C1CCN(C2CCC2)CC1)N(Cc1cn2ccc(-c3nnc(C(F)F)o3)cc2n1)c1cccc(F)c1 [Compound 4240]
[c] O=S(=O)(N1CCN(C2CCC(F)(F)CC2)CC1)N(Cc1cn2ccc(-c3nnc(C(F)F)o3)cc2n1)c1ccccc1 [Compound 4264]
[d] CC(CO)N1CCN(S(=O)(=O)N(Cc2cn3ccc(-c4nnc(C(F)F)o4)cc3n2)c2cccc(F)c2)CC1 (stereo not drawn) [Compound 4300]
Ascending sort, HDAC6 selectivity (fold). Reply with the labels, ordered as the question asks. c, d, a, b

[1] O=C(CO)N1CCN(S(=O)(=O)N(Cc2cn3ccc(-c4nnc(C(F)F)o4)cc3n2)c2cccc(F)c2)CC1 [Compound 4308]
[2] COC(=O)N1CCC(S(=O)(=O)N(Cc2cn3ccc(-c4nnc(C(F)F)o4)cc3n2)c2cccc(F)c2)CC1 [Compound 4252]
[3] O=S(=O)(N1CCN(C2CC3(CCC3)C2)CC1)N(Cc1cn2ccc(-c3nnc(C(F)F)o3)cc2n1)c1cccc(F)c1 [Compound 4622]
[4] CC(=O)N1CCC(S(=O)(=O)N(Cc2cn3ccc(-c4nnc(C(F)F)o4)cc3n2)c2cccc(F)c2)CC1 [Compound 4245]
I would appreciate it if you could sort these 4 molecules by HDAC6 selectivity (fold), starting from the smallest number. Answer by listing the labels in the requested order. 3, 2, 1, 4
(3: 274 fold, 2: 455 fold, 1: 724 fold, 4: 1055 fold)

[A] CS(=O)(=O)N1CCC(S(=O)(=O)N(Cc2cn3ccc(-c4nnc(C(F)F)o4)cc3n2)c2ccccc2)CC1 [Compound 4225]
[B] O=S(=O)(N1CCN(c2ncccn2)CC1)N(Cc1cn2ccc(-c3nnc(C(F)F)o3)cc2n1)c1ccccc1 [Compound 4275]
Of the two listed items, A and B , which carries the larger HDAC6 selectivity (fold) figure? Which one? Tell me its label. A
(A: 530 fold, B: 351 fold)
